biological target: DDR2; experiment: DDR2 LanthaScreen Europium Kinase Binding assay; settings: read-out: DDR2 Ki
reported.metric: Ki

molecule: CN1CCN(Cc2cc(NC(=O)c3ccc4c(c3)N(c3cncnc3)CC4)cc(C(F)(F)F)c2)CC1 [Example C1, reference compound]
target.entity: DDR2
Ki: 50 µM

Ask | // lookup Ki for CN1CCN(Cc2cc(C(=O)Nc3ccc4c(c3)N(c3cncnc3)CC4)cc(C(F)(F)F)c2)CC1 [Example C3, reference compound]
Reply | 58 µM

Ask | Also need Cc1cn(-c2cc(NC(=O)c3ccc4c(c3)N(c3cncnc3)CC4)cc(C(F)(F)F)c2)cn1 [Example C2, reference compound] , thanks.
Reply | 4 µM
